biological target: Brd4 bromodomain 1 (Homo sapiens); construct: made in house; host or cells: E. coli BL21(DE3); assay: Inhibition of binding of tetra-acetylated histone H4 and Brd4 bromodomain 1 by TR-FRET; details: His-tagged bromodomain 200 nM, biotinylated tetra-acetylated histone H4 peptide 25-50 nM, 2 hours at room temperature
Measured parameter: FRET activity (<50 uM)

Use these answered entries as a reference point.
Compound	Assay system	Measured parameter	Observed result
COc1cc(OC)c2c(=O)[nH]c(-c3ccc(NC(=O)CO)cc3)nc2c1 [Example 60]	Brd4 bromodomain 1 (Homo sapiens)	FRET activity (<50 uM)	Inactive
COc1cc(OC)c2c(=O)[nH]c(-c3cc(C)c(OCCNC(=O)C(C)C)c(C)c3)nc2c1 [Example 108]	Brd4 bromodomain 1 (Homo sapiens)	FRET activity (<50 uM)	Active
O=c1[nH]c(-c2ccc3c(c2)OCCO3)nc2ccccc12 [Example 31]	Brd4 bromodomain 1 (Homo sapiens)	FRET activity (<50 uM)	Inactive
COc1ccc(S(=O)(=O)NCCOc2c(C)cc(-c3nc4cc(OC)cc(OC)c4c(=O)[nH]3)cc2C)cc1 [Example 94]	Brd4 bromodomain 1 (Homo sapiens)	FRET activity (<50 uM)	Inactive
COc1cc(OC)c2c(=O)[nH]c(-c3cc(C)c(OCCN4CCOCC4)c(C)c3)cc2n1 [Example 45]	Brd4 bromodomain 1 (Homo sapiens)	FRET activity (<50 uM)	Active
COc1cc(OC)c2c(=O)[nH]c(-c3ccncc3)nc2c1 [Example 28]	Brd4 bromodomain 1 (Homo sapiens)	FRET activity (<50 uM)	Inactive

Form: compound = Cc1cc(-c2nc3ccccc3c(=O)[nH]2)cc(C)c1OCCN1CCOCC1 [Example 29] ; FRET activity (<50 uM) = Inactive

Form: compound = COc1cc(OC)c2c(=O)[nH]c(-c3cc(C)c(OCCO)c(C)c3)nc2c1 [Example 16] ; FRET activity (<50 uM) = Active
